Data provenance is patent US20260242478A1.

- system-under-test: T1, PSMA Fab (biotinylated (site not stated))
- T1 construct: also called Anti-PSMA Fab; 006 PSMA Fab
- assay-notes: phage ELISA; PSMA Fab on plate pre-incubated with PSMA antigen as competitor, anti-M13 HRP detection;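 also: crude clonal phage supernatants added to Fab-coated wells still holding PSMA antigen in blocking buffer, with bound phage as read-out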
Where no end group is shown, it is not given here.
measure: phage binding ELISA signal (Anti-PSMA Fab, PSMA antigen present)
Keep it simple and answer with nothing but the number.

// worked examples, phage binding ELISA signal (Anti-PSMA Fab, PSMA antigen present) included
binder	recorded-number
TTIMCEPTWMCTGF (cysteine pairing not given here; also: peptide displayed as fusion to phage pIII) [Phage-2990]	0.0683
AIAHCIPQWMCSGF [Phage-2995]	0.0878
EIPVCRPAWMCLGL [Phage-3000]	0.0698

Please turn your attention to the following entry.
Field phage binding ELISA signal (Anti-PSMA Fab, PSMA antigen present) (entry VVAHCVPSWMCTGF [Phage-2998] ) reads 0.0901
